experiment: qHTS for Inhibitors of human tyrosyl-DNA phosphodiesterase 1 (TDP1): qHTS in cells in presence of CPT; details: chicken DT40 Tdp1-/-;hTDP1 cells + 20 nM CPT, ATP luminescence, 48 h; series mostly up to 46.2 µM; also: nearly all actives have a fitted effect of over 55% in size; also: potency is read from the fitted curve at half-maximal effect
Out of some 420,000 compounds screened, about 50,000 (12%) were called active. Not shown: some 26% with an inconclusive outcome. The list comes from a sample in which actives are over-represented; it also holds close analogues and randomly drawn compounds.
reported.endpoint: Potency

Look over these answered cases.
# mol.smiles, reported.endpoint, reported.measurement
records = [
    ("CCC1(CC)Cc2ccccc2-c2nc3ccccc3c(=O)n21", "Potency", "18.4 µM (active)"),
    ("Cc1cc(Cl)ccc1NC(=S)N1CCC(C(N)=O)(N2CCCCC2)CC1", "Potency", "inactive"),
    ("Cc1ccc(S(=O)(=O)N(C)C)cc1NC(=O)c1ccc(-n2cncn2)c([N+](=O)[O-])c1", "Potency", "inactive"),
    ("CC1(C)Cc2ccccc2-c2nnc(-c3cccc(O)c3)n21", "Potency", "inactive"),
    ("CC1(C)Cc2ccccc2-c2c[nH]c(=O)n21", "Potency", "inactive"),
    ("CCc1ccccc1NC(=O)Cc1cn(C)c2ccccc12", "Potency", "inactive"),
    ("Cc1cccn2c(=O)nc(SCC(=O)NCc3ccccc3Cl)nc12", "Potency", "inactive"),
]

API: the following record is the query input.
Lab note: measured Potency of `Cc1ccc(-c2csc(N3CCN(c4cc5c(cc4Cl)nc(-c4ccncc4)n5CCOCCO)CC3)n2)cc1` was 16.4 µM (active)

---

assay: qHTS for Inhibitors of human tyrosyl-DNA phosphodiesterase 1 (TDP1): qHTS in cells in presence of CPT; conditions: chicken DT40 Tdp1-/-;hTDP1 cells + 20 nM CPT, ATP luminescence, 48 h; series mostly up to 46.2 µM; also: nearly all actives have a fitted effect of over 55% in size; also: potency is read from the fitted curve at half-maximal effect
The campaign covered roughly 420,000 compounds. About 50,000 (12%) were called active. About 26% were inconclusive and are not listed. This excerpt belongs to a sample that is enriched for actives.
reported.endpoint: Potency

Look over these answered cases.
# molecule, reported.measurement
data = [
    ("Nn1cnnc1N/N=C/c1cc([N+](=O)[O-])c(Cl)cc1Cl", "inactive"),
    ("COCCOC1CCN(C(=O)c2ccc(OC)c(OC3CCN(C(C)C)CC3)c2)CC1", "inactive"),
    ("CN(C)C(CNC(=O)Cc1ccc([N+](=O)[O-])cc1)c1ccccc1 (stereo not drawn)", "inactive"),
    ("Cc1cc(C)c(C=NNc2nc3c([nH]2)c(=O)n(C)c(=O)n3C)c(C)c1", "inactive"),
    ("CC(=O)Nc1ccc(S(=O)(=O)N(C)c2nc3ccccc3nc2Cl)cc1", "inactive"),
]

Answer for every listed entry: what is its Potency? The entries follow.
1. Cc1c(C(=O)O)nnn1-c1nonc1N
2. COc1ccccc1-n1nnnc1S(=O)(=O)Cc1ccc(Cl)cc1
3. Cc1ccc(S(=O)(=O)NCCC(=O)NNC(=O)C2COc3ccccc3O2)cc1 (stereo not drawn)
4. O=C(NC1CCCCC1)C1CCC(CNS(=O)(=O)c2ccccc2)CC1 (stereo not drawn)

Response:
["inactive", "5.8 µM (active)", "inactive", "inactive"]

---

test: qHTS for Inhibitors of human tyrosyl-DNA phosphodiesterase 1 (TDP1): qHTS in cells in presence of CPT; details: chicken DT40 Tdp1-/-;hTDP1 cells + 20 nM CPT, ATP luminescence, 48 h; series mostly up to 46.2 µM; also: nearly all actives have a fitted effect of over 55% in size
In all, about 420,000 compounds went through this assay and about 50,000 (12%) were called active. About 26% were inconclusive and are not listed. The call rests on the fitted dose curve; in most records, active means well fitted inhibition curve with a large enough effect; inconclusive means small, poorly fitted or top-dose-only effect; inactive means flat fitted curve, though single readings scatter. The entries come from a sample that favours actives as a whole.
Pick one and only one: 1.0 (active), 0.0 (inactive)

Illustrative cases are given below, each with its answer.
# compound, assigned.class
records = [
    ("CCCCOCCCNC(=O)C[C@@H]1C[C@@]2(C(=O)OCC)CCCC=C2N(CCC2=CCCCC2)C1=O", 1.0),
    ("O=S(=O)(Nc1ccc(OC(F)(F)F)cc1)c1cccc2nonc12", 0.0),
    ("CC1=C(C(=O)N(C)C)CC(CC(=O)NCCc2ccccn2)C(=O)N1CCC1=CCCCC1 (configuration not stated)", 0.0),
]

Prompt: I would be grateful if you could indicate the recorded call for `CCOC(=O)C=Cc1ccc(C(=O)OCC)[nH]1` .
Response: 1.0

Prompt: I would be grateful if you could indicate the recorded call for CCCCC(CC)CNC(=O)C1CCN(S(=O)(=O)c2cccc3nsnc23)CC1 (configuration not stated) .
Response: 0.0

Prompt: I would be grateful if you could indicate the recorded call for `CCOC(=O)c1c(C)oc2nc(C)nc(N3CCN(c4ccc(OC)cc4)CC3)c12` .
Response: 1.0

Prompt: I would be grateful if you could indicate the recorded call for `Cc1nc(N2CCOCC2)c2c(C(=O)NCc3cccc(Cl)c3)c(C)oc2n1` .
Response: 0.0

---

assay: qHTS for Inhibitors of human tyrosyl-DNA phosphodiesterase 1 (TDP1): qHTS in cells in presence of CPT; settings: chicken DT40 Tdp1-/-;hTDP1 cells + 20 nM CPT, ATP luminescence, 48 h; series mostly up to 46.2 µM; also: nearly all actives have a fitted effect of over 55% in size
Screen size: about 420,000 compounds; about 50,000 (12%) were called active. Not shown: some 26% with an inconclusive outcome. Calls follow the shape of the dose curve; as a rule, active = well fitted inhibition curve with a large enough effect; inconclusive = small, poorly fitted or top-dose-only effect; inactive = flat fitted curve, though single readings scatter. The list comes from a sample in which actives are over-represented; it also holds close analogues and randomly drawn compounds.
Pick one and only one: active, inactive

Illustrative cases are given below, each with its answer.
# compound, assigned.class
rows = [
    ("c1ccc2c(c1)C(=NC1CCCCC1)NC2=NC1CCCCC1", "active"),
    ("O=C(CSc1ccc(-c2ccc(Br)cc2)nn1)NCC1CCCO1 (centres undefined)", "inactive"),
]

Prompt: I would be grateful if you could indicate the recorded call for COc1ccc(CCNC(=O)C(=O)NCC2OCCN2S(=O)(=O)c2ccc(F)cc2)cc1OC (centres undefined) .
Response: inactive

Prompt: I would be grateful if you could indicate the recorded call for O=S1(=O)CC(N2CCN(CCO)CC2)CN1Cc1cn(Cc2cccc(Cl)c2)nn1 (centres undefined) .
Response: inactive

---

experiment: qHTS for Inhibitors of human tyrosyl-DNA phosphodiesterase 1 (TDP1): qHTS in cells in presence of CPT; details: chicken DT40 Tdp1-/-;hTDP1 cells + 20 nM CPT, ATP luminescence, 48 h; series mostly up to 46.2 µM; also: nearly all actives have a fitted effect of over 55% in size; also: potency is read from the fitted curve at half-maximal effect
Among all 420,000 compounds or so, about 50,000 (12%) were called active. About 26% were inconclusive and are not listed. The full list was thinned out, with actives kept by preference.
reported.endpoint: Potency

# molecule, Potency
data = [
    ("Cc1ccc(NC(=O)c2cc(-c3ccccc3O)n[nH]2)cc1C", "inactive"),
    ("CNC[C@@H]1Oc2c(NS(C)(=O)=O)cccc2C(=O)N([C@@H](C)CO)C[C@H]1C", "inactive"),
    ("COC(=O)C(C)n1cnc2c(nnn2-c2ccc(F)cc2)c1=O (stereo not drawn)", "inactive"),
    ("CCOc1ccc(C(=O)Nc2ccc3nc4c(c(Nc5ccccc5OC)c3c2)CCCC4)cc1", "4.11 µM (active)"),
    ("O=C(c1c(F)cccc1Cl)N1CCN(c2ccccn2)CC1", "inactive"),
    ("COC(=O)C1C(=O)NCC1c1ccc(OC)cc1 (stereo not drawn)", "inactive"),
    ("COC(=O)c1ccc(CNC(=O)Cn2cc(C)c(=O)[nH]c2=O)cc1", "inactive"),
]

API: the following record is the query input.
Lab note: measured Potency of `CCCOc1ccc(F)cc1-c1cc(C(=O)NCc2ccc(F)cc2)[nH]n1` was 14.6 µM (active)

---

experiment: qHTS for Inhibitors of human tyrosyl-DNA phosphodiesterase 1 (TDP1): qHTS in cells in presence of CPT; conditions: chicken DT40 Tdp1-/-;hTDP1 cells + 20 nM CPT, ATP luminescence, 48 h; series mostly up to 46.2 µM; also: nearly all actives have a fitted effect of over 55% in size
Among all 420,000 compounds or so, about 50,000 (12%) were called active. Another 26% or so got no clear call; they are omitted. Calls follow the shape of the dose curve; as a rule, active = well fitted inhibition curve with a large enough effect; inconclusive = small, poorly fitted or top-dose-only effect; inactive = flat fitted curve, though single readings scatter. Shown is part of a subset that was picked to be rich in actives.
Pick one and only one: Yes (active), No (inactive)

Prompt: I would be grateful if you could indicate the recorded call for `CN(C(=O)c1ccc(NC(=O)Cc2cccc(NC(=O)C3CCN(C(=O)c4ccccc4)CC3)c2)cc1)C1CC1` .
Response: No

Prompt: I would be grateful if you could indicate the recorded call for NC(CSC1(c2ccccc2)c2ccccc2-c2ccccc21)C(=O)O (stereo unspecified) .
Response: No

Prompt: I would be grateful if you could indicate the recorded call for CCOC(=O)COc1ccc(Cl)cc1C1NC(=O)NC(C)=C1C(C)=O (stereo unspecified) .
Response: No

Prompt: I would be grateful if you could indicate the recorded call for `O=C(Nc1ccncc1)c1cc(-c2ccccn2)nc2ccc(Br)cc12` .
Response: No

Prompt: I would be grateful if you could indicate the recorded call for `COc1ccc(NC(C)=O)cc1NC(=O)CN1CCN(C2c3ccccc3-c3ccccc32)CC1` .
Response: No

Prompt: I would be grateful if you could indicate the recorded call for CN(CCc1ccccc1)C(=O)c1cccc(NC(=O)Cc2cccc(NC(=O)C3CCCN(C(=O)C4CCC4)C3)c2)c1 (stereo unspecified) .
Response: Yes

Prompt: I would be grateful if you could indicate the recorded call for `Cc1ccccc1C1=NC(C(F)(F)F)(C(F)(F)F)c2c(n(-c3ccc(F)cc3)c(=O)[nH]c2=O)N1` .
Response: Yes

Prompt: I would be grateful if you could indicate the recorded call for `CCOC(=O)c1c(-c2ccccc2)oc2cc(Br)c(O)cc12` .
Response: No

Prompt: I would be grateful if you could indicate the recorded call for O=C(Nc1ccc(S(=O)(=O)NCC2CCCO2)cc1)c1ccc(F)cc1 (stereo unspecified) .
Response: Yes

Prompt: I would be grateful if you could indicate the recorded call for `NC(=O)C[n+]1cccc(C(N)=O)c1` .
Response: No

Prompt: I would be grateful if you could indicate the recorded call for `O=C(Cc1ccc([N+](=O)[O-])cc1)Nc1ccc(C(=O)N2CCOCC2)cc1` .
Response: No

Prompt: I would be grateful if you could indicate the recorded call for `CCN(CC)CCNC(=O)c1ccc(NC(=O)c2cc(-c3ccncc3)nc3ccccc23)cc1` .
Response: Yes

Prompt: I would be grateful if you could indicate the recorded call for `COC(=O)CNC(=O)c1cc(-c2ccncc2)nc2ccccc12` .
Response: No

Prompt: I would be grateful if you could indicate the recorded call for CCOC(=O)C1=C(CNC2CCCCC2)NC(=O)NC1c1cc(C)ccc1C (stereo unspecified) .
Response: Yes

Prompt: I would be grateful if you could indicate the recorded call for `CCOC(=O)C1CCN(C(=O)Nc2ccc(C)c(Cl)c2)CC1` .
Response: No
